The origin of these recorded values is patent US12649751B2.

Biological target: HPK1 (Homo sapiens)
Sequence (Q92918 whole entry, species assumed): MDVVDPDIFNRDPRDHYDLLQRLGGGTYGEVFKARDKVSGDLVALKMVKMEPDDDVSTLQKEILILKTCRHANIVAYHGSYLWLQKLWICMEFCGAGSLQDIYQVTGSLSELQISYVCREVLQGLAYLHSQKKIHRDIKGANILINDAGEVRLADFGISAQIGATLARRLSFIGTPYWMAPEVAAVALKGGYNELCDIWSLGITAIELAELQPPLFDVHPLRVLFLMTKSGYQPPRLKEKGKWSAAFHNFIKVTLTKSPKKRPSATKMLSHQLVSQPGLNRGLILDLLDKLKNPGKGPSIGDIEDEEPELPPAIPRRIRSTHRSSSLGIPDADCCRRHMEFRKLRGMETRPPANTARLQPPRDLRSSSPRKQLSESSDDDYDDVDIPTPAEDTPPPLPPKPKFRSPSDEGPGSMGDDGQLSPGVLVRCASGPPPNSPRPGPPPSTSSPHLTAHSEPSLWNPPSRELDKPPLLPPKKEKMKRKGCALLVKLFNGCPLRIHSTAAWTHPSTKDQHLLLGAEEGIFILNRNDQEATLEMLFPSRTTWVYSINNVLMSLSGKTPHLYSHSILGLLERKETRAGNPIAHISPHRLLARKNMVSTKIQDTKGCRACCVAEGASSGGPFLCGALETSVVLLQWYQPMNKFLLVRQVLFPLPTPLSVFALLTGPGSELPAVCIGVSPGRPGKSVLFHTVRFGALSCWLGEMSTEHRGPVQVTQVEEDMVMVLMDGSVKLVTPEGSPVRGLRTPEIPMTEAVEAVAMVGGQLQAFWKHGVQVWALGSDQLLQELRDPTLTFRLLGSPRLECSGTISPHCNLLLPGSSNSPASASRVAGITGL
Assay: HPK1 Biochemical Assay (ADP-Glo luminescence; low ATP 10 μM or high ATP 200 μM)
Conditions: HPK1 ADP-Glo assay, low ATP (10 μM ATP, 2 nM HPK1); read-out: Biochemical Potency (low ATP)
Entries annotated with measured IC50
QUANTITY MEASURED: IC50

MOLECULE	ASSAY RESULT
CN1C[C@@H]2C[C@H]1CN2c1cncc(Nc2cc3nc(-c4cccc(C(C)(C)O)c4)sc3cn2)n1	< 100 nM
CN1C[C@@H]2C[C@H]1CN2c1cncc(Nc2cc3nc(-c4ncco4)sc3cn2)n1	< 100 nM
Cc1cc(Nc2cc3nc(-c4ccnc(C(C)(C)O)c4)sc3cn2)nc(N2C[C@@H]3C[C@H]2CN3C)n1	< 100 nM
CN1C[C@@H]2C[C@H]1CN2c1cncc(Nc2cc3nc(-c4cccc(C(C)(O)C(F)(F)F)c4)sc3cn2)n1 (stereo partly shown)	< 100 nM
CN1C[C@@H]2C[C@H]1CN2c1nccc(Nc2cc3nc(-c4ccnc(N5CC[C@@H](O)C5)c4)sc3cn2)n1 [Example 464]	< 100 nM
CN1C[C@@H]2C[C@H]1CN2c1nccc(Nc2cc3nc(-c4ccnc(N5CC[C@@H](F)C5)c4)sc3cn2)n1	< 100 nM
Cc1ccnn1-c1nc2cc(Nc3ccc4c(n3)C(C)(N)CCC4)ncc2s1 (stereo not shown)	< 100 nM
